Source of measurements: PubChem BioAssay AID248

Below, each of the compounds is paired with its reported T/C value.
System: L1210 leukemia ip in BDF1 mice, survival T/C
Measurement Description: NCI In Vivo Anticancer Drug Screen. Data for tumor model L1210 Leukemia (intraperitoneal) in B6D2F1 (BDF1) mice
Study Conditions: endpoint: mean survival time; dose: 200.0 mg/kg/injection; schedule: Q01DX001 (ip); vehicle: carboxymethylcellulose (CMC); higher = longer survival
Toxic doses and inconclusive results are not listed.
Reported Endpoint: T/C

> print(dat)
                                    compound                       experimental.system            result
 1  Nc1nc(N)c(N=Nc2ccc(S(=O)(=O)Nc3ccccn3)cc2)cc1N=Nc1ccccc1  L1210 leukemia ip in BDF1 mice, survival T/C  102 % of control
 2   O=c1[nH]c2c(c(=O)[nH]1)OCN(Cc1ccccc1)C2  L1210 leukemia ip in BDF1 mice, survival T/C  100 % of control
 3      O=C(CCC(=O)c1ccc(Br)cc1)c1ccc(Br)cc1  L1210 leukemia ip in BDF1 mice, survival T/C  103 % of control
 4             CC(=N/NC(N)=S)/C(C)=N/NC(N)=S  L1210 leukemia ip in BDF1 mice, survival T/C   87 % of control
 5     CN1/C(=C/C=N/NC(N)=S)C(C)(C)c2ccccc21  L1210 leukemia ip in BDF1 mice, survival T/C   98 % of control
 6  NC(CSCc1ccccc1)C(=O)O (stereo unspecified)  L1210 leukemia ip in BDF1 mice, survival T/C   89 % of control
 7  CN1C(=O)OC2C3NC(=O)OC3C(O)C(O)C21 (stereo unspecified)  L1210 leukemia ip in BDF1 mice, survival T/C  107 % of control
 8               CN(C(=O)N(CCCl)N=O)c1ccccc1  L1210 leukemia ip in BDF1 mice, survival T/C  104 % of control
 9        CC(=O)Nc1ccc2c(c1)-c1ccc(F)cc1C2=O  L1210 leukemia ip in BDF1 mice, survival T/C  103 % of control
10  ClCC1CNC(c2ccccc2)O1 (stereo unspecified)  L1210 leukemia ip in BDF1 mice, survival T/C   93 % of control
11  COC1COC(OC)C(OS(C)(=O)=O)C1OC (stereo unspecified)  L1210 leukemia ip in BDF1 mice, survival T/C   98 % of control
12  CCCCCCCCCCC(C1CCCC2CCCCC21)C1CCCC2CCCCC21 (stereo unspecified)  L1210 leukemia ip in BDF1 mice, survival T/C  102 % of control
13        CCCCCCOC(=O)c1cccc2c1-c1ccccc1C2=O  L1210 leukemia ip in BDF1 mice, survival T/C   93 % of control
14  Cc1ccc(S(=O)(=O)N2CC(O)C=Cc3ccccc32)cc1 (stereo unspecified)  L1210 leukemia ip in BDF1 mice, survival T/C  105 % of control
15       Cn1c2c(c3ccccc3c1=O)C(=O)c1ccccc1-2  L1210 leukemia ip in BDF1 mice, survival T/C   91 % of control
16  CSc1cc2c(c(SC)c1[N+](=O)[O-])C(=O)c1ccccc1-2  L1210 leukemia ip in BDF1 mice, survival T/C   98 % of control
17  Cc1ccc(S(=O)(=O)N(Cc2ccc([N+](=O)[O-])cc2)c2ccccc2)cc1  L1210 leukemia ip in BDF1 mice, survival T/C  105 % of control
18  Nc1[nH]c(=S)[nH]c(=O)c1N=Nc1c(Br)cc(S(N)(=O)=O)cc1Br  L1210 leukemia ip in BDF1 mice, survival T/C  100 % of control
19  CC(=O)Nc1cc2c(cc1[N+](=O)[O-])-c1ccccc1/C2=N\O  L1210 leukemia ip in BDF1 mice, survival T/C   94 % of control
20              COc1ccccc1NS(=O)(=O)c1ccccc1  L1210 leukemia ip in BDF1 mice, survival T/C  103 % of control
21  CS(=O)c1ccc2c(c1)-c1ccccc1C2=O (stereo unspecified)  L1210 leukemia ip in BDF1 mice, survival T/C   95 % of control
22  C/C=C1\C(=O)C2CCC1C2 (stereo unspecified)  L1210 leukemia ip in BDF1 mice, survival T/C   90 % of control
23         O=C1O/C(=C2\OCc3ccccc32)c2ccccc21  L1210 leukemia ip in BDF1 mice, survival T/C  100 % of control
24  CC(=O)CC(=O)C(F)(F)F.CC(=O)CC(=O)C(F)(F)F.CC(=O)CC(=O)C(F)(F)F.[Ru]  L1210 leukemia ip in BDF1 mice, survival T/C   94 % of control
25       O=C(Oc1ccc(Cl)cc1Cl)Oc1ccc(Cl)cc1Cl  L1210 leukemia ip in BDF1 mice, survival T/C  104 % of control
26  CCOC(=O)NP(=O)(Nc1ccc(C)cc1)Nc1ccc(C)cc1  L1210 leukemia ip in BDF1 mice, survival T/C   95 % of control
27  CCOc1cc(/C=N\Nc2nnc(C)n2N)c(C)cc1N(CCCl)CCCl  L1210 leukemia ip in BDF1 mice, survival T/C  105 % of control
28  Cc1cc(N(CCCl)CCCl)ccc1C=Nc1ccc(C(=O)O)c(O)c1  L1210 leukemia ip in BDF1 mice, survival T/C   95 % of control
29  O=C(c1ccccc1)C(Br)C(Br)C(=O)c1ccccc1 (stereo unspecified)  L1210 leukemia ip in BDF1 mice, survival T/C   96 % of control
30                      Cc1ccc(NC2=NCCO2)cc1  L1210 leukemia ip in BDF1 mice, survival T/C   98 % of control
31   O=C1c2cc(F)ccc2-c2cc([N+](=O)[O-])ccc21  L1210 leukemia ip in BDF1 mice, survival T/C   94 % of control
